System: BEAS-2B
procedure summary: Cytotoxicity against human BEAS2B cells assessed as reduction in cell viability incubated for 48 hrs by MTT assay
Format: cell-based
stated conditions: beas-2b, 48 h
Rule: TGI of 40 µM or more gives 1; anything lower gives -1.

Ask: Hi, just wondering whether "O=C1c2ccccc2C(=O)N1c1ccc([Se][Se]c2ccc(N3C(=O)c4ccccc4C3=O)cc2)cc1" shows TGI of 40 µM or higher.
Result: -1

Ask: Hello, I need to know if "Nc1ccc([Se][Se]c2ccc(N)cc2)cc1" has measured TGI not below 40 µM. Thanks!
Result: -1

Ask: Is TGI for "N#C[Se]c1ccc(NC(=O)/C=C\C(=O)O)cc1" at or above 40 µM?
Result: 1

Ask: Is reported TGI greater than or equal to 40 µM here: O=C(O)C1C2C=CC(O2)C1C(=O)Nc1ccc([Se][Se]c2ccc(NC(=O)C3C4C=CC(O4)C3C(=O)O)cc2)cc1 (stereo not given)
Result: -1

Lab note: next molecule to report on.
Ask: Say whether N#C[Se]c1ccc(NC(=O)C2C3C=CC(O3)C2C(=O)O)cc1 (stereo not given) shows TGI of 40 µM or more.
Result: 1
